Reference source for all entries: patent US20160220569A1

Protocol details: 14-day oral gavage toxicokinetic study in rats
Format: in vivo
Conditions: male, rat, plasma, po, 15 mg/kg, Mean Compound 1 Plasma Concentration, rats, oral 15 mg/kg, Day 1, 12 h, Male
Reported metric: concentration at 12 h (ng/mL)
Answers are plain numbers, in ng/mL.

What measured concentration at 12 h goes with CN1CCN(c2ccc(Nc3ncc4cc5n(c4n3)C3(CCCCC3)CNC5=O)nc2)CC1 ?
618

###

Protocol details: 14-day oral gavage toxicokinetic study in rats
Type: in vivo
Conditions: male, rat, plasma, po, 30 mg/kg, Mean Compound 1 Plasma Concentration, rats, oral 30 mg/kg, Day 14, 1 h, Male
Reported metric: concentration at 1 h (µg/mL)
One number for each entry, in µg/mL.

Entry CN1CCN(c2ccc(Nc3ncc4cc5n(c4n3)C3(CCCCC3)CNC5=O)nc2)CC1 : reported concentration at 1 h = ?
1.53

###

Protocol details: 14-day oral gavage toxicokinetic study in rats
Assay type: in vivo
Conditions: male, rat, plasma, po, 2 mg/kg, Compound 1 Plasma Concentration, rats, Male, Day 1, 1 h; daily oral 2 mg/kg (Group 7); individual animals
Reported metric: concentration at 1 h
Kindly report the value followed by its unit.

Could you tell me which concentration at 1 h is on file for CN1CCN(c2ccc(Nc3ncc4cc5n(c4n3)C3(CCCCC3)CNC5=O)nc2)CC1 [Compound 1] ?
0.0591 µg/mL

###

Protocol details: 14-day oral gavage toxicokinetic study in rats
Assay type: in vivo
Conditions: male, rat, plasma, po, 2 mg/kg, Mean Compound 1 Plasma Concentration, rats, oral 2 mg/kg, Day 1, 2 h, Male
Reported metric: concentration at 2 h (ng/mL)
One number for each entry, in ng/mL.

For CN1CCN(c2ccc(Nc3ncc4cc5n(c4n3)C3(CCCCC3)CNC5=O)nc2)CC1 , what is its reported concentration at 2 h?
102

###

Protocol details: 14-day oral gavage toxicokinetic study in rats
Assay type: in vivo
Conditions: female, rat, plasma, po, 5 mg/kg, Individual Compound 1 Plasma Concentration, rats, daily oral 5 mg/kg, Day 14, Female, 1 h
Reported metric: concentration at 1 h (ng/mL)
Numbers only, in ng/mL.

Reported concentration at 1 h, compound CN1CCN(c2ccc(Nc3ncc4cc5n(c4n3)C3(CCCCC3)CNC5=O)nc2)CC1 : ____
428

###

Protocol details: Compound 1 PK dosed Days 1-3 with etoposide and carboplatin
Assay type: in vivo, human
Conditions: human, plasma, intravenous, 200 mg/m2, 200 mg/m^2 with Etoposide and Carboplatin, Day 1, Geo. Mean; read-out: AUCinf
Reported metric: AUC(0-inf)

AUC(0-inf) lookup needed for CN1CCN(c2ccc(Nc3ncc4cc5n(c4n3)C3(CCCCC3)CNC5=O)nc2)CC1 , thanks.
2470 ng·h/mL

###

Protocol details: 14-day oral gavage toxicokinetic study in rats
Type: in vivo
Conditions: male, rat, plasma, po, 15 mg/kg, Mean Compound 1 Plasma Concentration, rats, oral 15 mg/kg, Day 1, […], Male
Reported metric: concentration at […] (ng/mL)
One number for each entry, in ng/mL.

Consider the compound shown here: CN1CCN(c2ccc(Nc3ncc4cc5n(c4n3)C3(CCCCC3)CNC5=O)nc2)CC1 What is its recorded concentration at […]?
35.6

###

Protocol details: 14-day oral gavage toxicokinetic study in rats
Type: in vivo
Conditions: male, rat, plasma, po, 15 mg/kg, Mean Compound 1 Plasma Concentration, rats, oral 15 mg/kg, Day 1, 8 h, Male
Reported metric: concentration at 8 h
Lab note: write values as number then unit, every time.

Reported concentration at 8 h for CN1CCN(c2ccc(Nc3ncc4cc5n(c4n3)C3(CCCCC3)CNC5=O)nc2)CC1 : what is it?
1020 ng/mL
